Values from PubChem BioAssay (NCI)

- Test system: OVCAR-4 ovarian
- test_summary: NCI-60 one-dose screen, 48 h
- study_conditions: 10 µM unless noted
This is part of a sample that, as a whole, favours compounds with a hit. Of some 83,000 tested, about 20% had one in any assay. Activity calls are given as the source filed them. How the source made its calls: active means growth percent below 10; inactive means the rest.
Lab note: assign the record to one of YES (active), NO (inactive)

input: Name the outcome recorded for "O=C(O)c1ccc(-n2cc(/C=N/Nc3ccc(F)cc3)c(-c3cc4ccccc4oc3=O)n2)cc1" in the assay.
output: NO

input: Moving on to the next compound: OCCCC1CCN(C(Cc2ccccc2)c2ccccc2)CC1 (stereo unspecified)
output: NO

input: What do you get for "CCCCCCCCCCCCCCCCCCOc1ccccc1CC(=O)NCC[N+]1(C)CCCC1" ?
output: NO

input: Thanks! And "C=CCn1cc(-c2nc3ccccc3s2)c2cc(-c3ccc4c5c(cccc35)C(=O)N(N)C4=O)ccc21" ?
output: NO

input: Now consider "O=C(Nc1ccc(-c2nc(N3CCOCC3)c3cccn3n2)cc1)Nc1cccnc1" and answer again.
output: YES

input: Same again, this time with "CN1CCN(C(=O)c2ccc(NC(=O)Nc3ccc(-c4nc(N5CCOCC5)c5cccn5n4)cc3)cc2)CC1"
output: YES

input: Field entry: "O=C(OCc1ccc2cccc(O)c2n1)N1CCN(C(=O)c2cc3cc(F)ccc3[nH]2)CC1"
output: YES

input: Moving on to the next compound: "Cc1cc2c([nH]1)CSc1cc(S(=O)(=O)c3ccccc3)c(=O)[nH]c1-2"
output: NO

input: Likewise for "COC(=O)/C=C1/SC(=Nc2ccc(C)cc2)N(CCc2c[nH]c3ccc(O)cc23)C1=O" ?
output: NO

input: Cool, now "CCOC(=O)C#Cc1c(C(=O)OCC)nnn1[C@@H]1O[C@H](CO)[C@H]2OC3(CCCCC3)O[C@H]21"
output: NO

input: Record: "COc1ccc2c(O)c(/C=C3\N=Nc4ccccc43)oc2c1C[C@@H]1CCNC[C@H]1F"
output: NO

input: Try this compound too: "CC(C)N1CCN(Cc2ccc3c(NNC(=O)c4ccccc4)nc4cc(F)ccc4n23)CC1"
output: NO

input: Proceed to "O=C1/C(=C/c2ccc(F)cc2)COc2ccc(O)c(O)c21"
output: NO

input: Record: "O=C(Nn1c2c(sc1=NCc1ccccc1)C(=O)c1ccccc1C2=O)c1cc2ccc1CCc1ccc(cc1)CC2"
output: NO

input: Quick one: "CCOC(=O)c1cn2ncnc(Oc3ccc(NC(=O)NC4CCCCC4)c(Cl)c3)c2c1C"
output: YES

input: Likewise for "COCCn1cc(-c2nc(-c3cc4cccnc4n3CCOC)cs2)c2cc(OC)ccc21" ?
output: NO

###

- Test system: NCI-H322M lung
- test_summary: NCI-60 one-dose screen, 48 h (100 = growth as untreated, 0 = no growth, -100 = all killed)
- study_conditions: 10 µM unless noted
About 83,000 compounds went through this panel and 20% of them were active in at least one assay; those are over-represented in the sample as a whole.
experimental_readout: growth (%)
Respond with the bare value in %.

input: # lookup: growth of "COC(=O)[C@]1(C)CCC[C@]2(C)[C@H]3C[C@H]4C(C(C)C)=C[C@]3(CC[C@H]21)[C@H]1[C@@H]4[C@@H](OCCC#N)CC[C@@H]1OCCC#N"
output: 98.6

input: Can you handle "O=[N+]([O-])c1ccc(N/N=C(/C(=N/Nc2ccc([N+](=O)[O-])cc2)c2ccccc2)c2ccccc2)cc1" next?
output: 81.1

input: // next record "COc1ccc2nc3ccc(OC)cc3c(SCCCN)c2c1"
output: 114

input: Could you do the same for N#CC1=C(N)Oc2c(sc3c(Br)cccc23)C1c1ccc(F)cc1 (configuration not stated) , please?
output: 41.3

input: Also "O=C1c2cccc(NCCN=Cc3cc(O)ccc3O)c2C(=O)c2c(NCCN=Cc3cc(O)ccc3O)cccc21" ?
output: -11.3

input: // next record "CN(CCn1sc(=O)n(Cc2ccccc2)c1=O)Cc1ccc2c(Cl)cc(Cl)c(O)c2n1"
output: 41

input: Queued: "Fc1cc(F)cc(C(c2c[nH]c3ccccc23)c2c[nH]c3ccccc23)c1"
output: 86.1

###

- Tested on: HOP-92 NSCLC
- test_summary: NCI-60 one-dose screen, 48 h (100 = growth as untreated, 0 = no growth, -100 = all killed)
- study_conditions: 10 µM unless noted
About 83,000 compounds went through this panel and 20% of them were active in at least one assay; those are over-represented in the sample as a whole.
Assignment: determine reported growth for the given compounds.
The reply should contain only the number, in %.

input: Bench note: what growth did "O=C(CSc1nc(-c2ccccc2)[nH]c1S(=O)(=O)c1ccccc1)NC1CC1" show?
output: 89.6

input: Next compound: "COc1ccc(-c2csc(NC(=O)CSc3nc(-c4ccccc4)cc(=O)[nH]3)n2)cc1"
output: 90.2

input: Try this compound too: "O=C1Nc2ccccc2/C1=C\c1nc(-c2ccccc2F)n2ccccc12"
output: 40.4

input: // repeat for C[C@]12C=CC(=O)C=C1CCC1C2[C@@H](O)C[C@@]2(C)C1CC[C@]2(O)C(=O)COC(=O)CCC(=O)O (stereo partly drawn) and report
output: 87.1

input: One more compound: CCN1C(=O)N(CC)C2C1NN=c1s/c(=C\c3ccc(Cl)cc3Cl)c(=O)n12 (stereo not drawn)
output: 50.8

input: Same read-out for "O=C(Nc1ccc(NC(=O)c2cc(=O)[nH]c3ccccc23)cc1)Nc1cccc(C(F)(F)F)c1" ?
output: 42.6

input: Query "COc1ccccc1Nc1nc2c(s1)C1=CC[C@H]3[C@@H]4CC[C@H]([C@H](C)CCCC(C)C)[C@@]4(C)CC[C@@H]3[C@@]1(C)CC2" next
output: 90.8

input: Subsequent entry: "CCCCCCCCn1ccc2cc(NC(=O)CN3CCN(c4nc(C)cc(Cl)n4)CC3)ccc21"
output: 79.3

###

- Tested on: HOP-92 NSCLC
- test_summary: NCI-60 one-dose screen, 48 h
- study_conditions: 10 µM unless noted
Compounds without any hit were thinned out: in the full panel of roughly 83,000, 20% have a hit. Calls of active or inactive are those of the source. The calls were made as follows: active = growth percent below 10; inactive = the rest.
The categories you may choose from are T for active, F for inactive

input: Give the logged outcome of this assay for the following compound: "Cn1cc(-c2nc(-c3c[nH]c4ccncc34)cs2)c2ccccc21"
output: F

input: How about "CO/N=C(/C)c1ccc(NC(=O)CSc2nnc(-c3ccncc3)n2-c2ccccc2)cc1" ?
output: T

input: // same read-out, input: "C#CCOc1ccc2ncnc(Nc3cccc(NC(=O)C=C)c3)c2c1"
output: F

input: Follow-up item: "Oc1ccc(CCn2c(O)c(/C=C3\CN=c4ccccc4=N3)sc2=S)cc1"
output: T

input: Now consider "COC(=O)c1cc(-c2ccccc2)[nH]c1N/N=C/c1c(Cl)cccc1Cl" and answer again.
output: F

input: Also need "c1cnc2[nH]cc(-c3csc(-c4cn(CCCN5CCOCC5)c5ccccc45)n3)c2c1" , thanks.
output: F

input: Another compound: "N#C/C(=C\c1ccc2ccccc2c1)c1cc2ccccc2[nH]1"
output: F

input: Check "CN1CCN(c2ccc(C(=O)Nc3cccc(C#Cc4cccc5[nH]nc(N)c45)c3)cc2C(F)(F)F)CC1" too.
output: T

input: # repeat for "CCOc1ccc(NC(=O)CSc2oc(-c3ccccc3)nc2S(=O)(=O)c2ccc(F)cc2)cc1"
output: F

input: Consider next the compound "COc1ccc2c(c1)[n+]([O-])c(C(=O)/C=C/C=C(\Cl)c1cc(OC)c(OC)c(OC)c1)c(C)[n+]2[O-]" in the same way.
output: F

input: Record: "CC1=C(Nc2ccc(N3CCN(C)CC3)cc2)C(=O)c2cncnc2C1=O"
output: T

input: Subsequent entry: CCN1C(=O)N(CC)C2C1NN=c1s/c(=C\c3cccc([N+](=O)[O-])c3)c(=O)n12 (stereo unspecified)
output: F

input: Also need "O=C(NNC(=O)c1ccc(-n2cc(-c3ccccc3)nn2)cc1)Nc1ccccc1" , thanks.
output: F

input: Then "O=[N+]([O-])c1ccc(N/N=C(/C(=N/Nc2ccc([N+](=O)[O-])cc2)c2ccccc2)c2ccccc2)cc1" ?
output: F

input: Now the same for "COC(=O)c1n[nH]c2ccc3nc(-c4cn[nH]c4C(F)(F)F)c4c(c3c12)CCCC4"
output: F

input: And "Cc1ccc(-c2nc3nc(-c4ccc(F)cc4)nc(N4CCNCC4)c3o2)cc1" ?
output: F

input: Also, "N=C(N)c1ccc(-c2ccc(-c3cc(Cl)cc(Cl)c3)o2)o1" please.
output: F

input: Let us now turn to "O=c1c2cc(-c3ccccc3)sc2nc2sc(-c3ccccc3)nn12"
output: F

input: Try this compound too: "CCN1CCN(c2cc(C(=O)Nc3nc(-c4cc(OC)c(OC)c(OC)c4)cs3)cc(C(F)(F)F)c2)CC1"
output: F

input: Would you kindly repeat that for "N#Cc1cccc(-c2c(-c3ccc4ccccc4c3)oc3ccccc3c2=O)c1" ?
output: F

input: Moving on to the next compound: "O=Nc1c(-c2c(O)[nH]c3ncccc23)[nH]c2ccccc12"
output: F

input: Try this compound next: CC(C)N1CN2C(=S)NC3C2N(C1)C(=S)N3C (stereo unspecified)
output: F

input: Same lookup for "COc1ccc(-c2nn(-c3ccccc3)cc2/C=C2/SC(=S)N(C)C2=O)cc1" , please.
output: F

input: Item: CCCC(=O)NC(c1ccc2c(c1)OCO2)c1ccc2cccnc2c1O (stereo unspecified)
output: F

input: Also check "CCCCCCNC(=O)Oc1ccc(/C(=C(/C)Cc2ccc(OC)cc2)c2ccc(OCCCN(C)C)cc2)cc1"
output: F

input: One more compound: "CN([O-])c1nc(N(C)[O-])nc(N2CCOCC2)n1.CN([O-])c1nc(N(C)[OH2+])nc(N2CCOCC2)n1.[Fe+3]"
output: F
